In this section we review reported IC50 values for a set of compounds.
measured target: Tyrosine-protein kinase BTK (Homo sapiens)
Sequence (Q06187 whole entry): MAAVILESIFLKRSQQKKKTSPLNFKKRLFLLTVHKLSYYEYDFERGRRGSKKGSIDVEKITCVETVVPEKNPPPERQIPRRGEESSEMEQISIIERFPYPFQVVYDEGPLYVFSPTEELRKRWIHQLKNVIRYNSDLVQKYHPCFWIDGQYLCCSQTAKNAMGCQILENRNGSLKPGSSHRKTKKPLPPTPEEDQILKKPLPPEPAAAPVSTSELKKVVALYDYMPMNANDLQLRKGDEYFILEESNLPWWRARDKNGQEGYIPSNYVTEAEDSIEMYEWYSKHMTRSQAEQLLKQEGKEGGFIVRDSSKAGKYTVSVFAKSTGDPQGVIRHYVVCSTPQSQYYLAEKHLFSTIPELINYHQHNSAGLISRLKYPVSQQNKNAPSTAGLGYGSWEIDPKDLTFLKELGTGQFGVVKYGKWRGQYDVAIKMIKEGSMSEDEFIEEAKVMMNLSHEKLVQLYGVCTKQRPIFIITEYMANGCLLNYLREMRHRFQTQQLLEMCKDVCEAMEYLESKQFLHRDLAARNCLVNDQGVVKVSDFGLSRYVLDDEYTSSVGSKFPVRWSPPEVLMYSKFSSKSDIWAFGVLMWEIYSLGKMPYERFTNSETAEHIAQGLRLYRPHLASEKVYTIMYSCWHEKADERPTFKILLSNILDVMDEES
assay text: Inhibition of BTK (unknown origin) using Poly(Glu4,Tyr1) as substrate in presence of ATP by radiometric kinase assay

[
  {
    "structure string": "CN1CCN(c2ccc(Nc3nc(Nc4ccc(F)c(F)c4)c4ncn(CC5CC5)c4n3)cc2)CC1",
    "IC50 / nM": 580
  },
  {
    "structure string": "CN1CCN(c2ccc(Nc3nc(Nc4ccc(F)c(F)c4)c4ncn(CC5CC5)c4n3)cc2F)CC1",
    "IC50 / nM": 2650
  }
]

====

assay text: Kinetic solubility of the compound
Type: physicochemical
condition info: read-out: Kinetic_solubility

[
  {
    "structure string": "C=CS(=O)(=O)N1CCC(Cn2cc(-c3ccc4c(c3)OCO4)c3c(N)ncnc32)CC1",
    "solubility kinetic": "100 µg/mL"
  }
]

====

Test system: OCI-Ly10
assay text: Antiproliferative activity against human OCILY10 cells assessed as inhibition of cell proliferation by MTT assay
Type: functional, cell-based
pIC50: −log10 of the molar value.

[
  {
    "structure string": "C=C(Cl)C(=O)N1CCC[C@H](n2nc(-c3ccc(Oc4ccccc4)cc3)c3c(N)ncnc32)C1",
    "measured target": "OCI-Ly10",
    "pIC50": 6.80
  }
]

====

Test system: NAMALVA
assay text: Antiproliferative activity against human NAMALWA cells assessed as reduction in cell viability measured after 72 hrs by CCK-8 assay
Type: functional, cell-based
Recorded measurements of IC50, one per entry
property name: IC50

[
  {
    "structure string": "C=CC(=O)Nc1cccc(Nc2nc(Nc3ccc(Cn4cc(C)nc4CC)cc3)ncc2Cl)c1",
    "measured target": "NAMALVA",
    "data value": "< 10.8 µM"
  },
  {
    "structure string": "C=CC(=O)Nc1cccc(Nc2nc(Nc3ccc(Cn4cc(C)nc4CC)cc3)ncc2F)c1",
    "measured target": "NAMALVA",
    "data value": "< 10.8 µM"
  }
]

====

assay text: Inhibition of recombinant human BTK cys481S mutant using Poly(Glu4,Tyr1) and ATP as substrate measured after 2 hrs by ADP-Glo kinase assay
pIC50: −log10 of the molar value.

[
  {
    "compound": "C=CC(=O)N1CC2CC(n3nc(-c4ccc(C(=O)Nc5ccccn5)cc4)c4c(N)ncnc43)CC2C1 (stereo unspecified)",
    "pIC50": 7.85
  }
]

====

measured target: Tyrosine-protein kinase BTK (Homo sapiens)
assay text: Inhibition of BTK (unknown origin) using Poly(Glu4,Tyr1) as substrate in presence of ATP
pIC50: −log10 of the molar value.
property name: pIC50

[
  {
    "compound": "C=CC(=O)N1CCCC(Cn2cc(-c3ccc(Oc4ccccc4)cc3)c3c(N)ncnc32)C1 (single isomer, unassigned)",
    "measured target": "Tyrosine-protein kinase BTK (Homo sapiens)",
    "data value": 8.77
  },
  {
    "compound": "C=CC(=O)Nc1cccc(N2C(=O)OC(C)c3cnc(Nc4ccc(N5CCN(C)CC5)cc4OC)nc32)c1 (centres undefined)",
    "measured target": "Tyrosine-protein kinase BTK (Homo sapiens)",
    "data value": 8.15
  },
  {
    "compound": "C=CS(=O)(=O)N1CCC(Cn2cc(-c3ccc4c(c3)OCO4)c3c(N)ncnc32)CC1",
    "measured target": "Tyrosine-protein kinase BTK (Homo sapiens)",
    "data value": 8.88
  },
  {
    "compound": "C=CC(=O)Nc1cccc(N2C(=O)OCc3cnc(Nc4ccc(N5CCN(C)CC5)cc4OC)nc32)c1",
    "measured target": "Tyrosine-protein kinase BTK (Homo sapiens)",
    "data value": 8.33
  }
]

====

assay text: Oral bioavailability in rat at 30 mg/kg measured upto 8 hrs
Assay type: ADME, organism-based
condition info: in vivo

[
  {
    "structure string": "C=C(Cl)C(=O)N1CCC[C@H](n2nc(-c3ccc(Oc4ccccc4)cc3)c3c(N)ncnc32)C1",
    "bioavailability (%)": 6
  }
]

====

assay text: Antiproliferative activity against human MINO cells assessed as inhibition of cell proliferation by MTT assay
Format: functional, cell-based
pIC50: −log10 of the molar value.
property name: pIC50

[
  {
    "structure string": "C=C(Cl)C(=O)N1CCC[C@H](n2nc(-c3ccc(Oc4ccccc4)cc3)c3c(N)ncnc32)C1",
    "data value": 6.25
  }
]

====

measured target: Bcr/Abl fusion protein (Homo sapiens, UniProt P00519)
Sequence (P00519 whole entry, the tested form may be a part): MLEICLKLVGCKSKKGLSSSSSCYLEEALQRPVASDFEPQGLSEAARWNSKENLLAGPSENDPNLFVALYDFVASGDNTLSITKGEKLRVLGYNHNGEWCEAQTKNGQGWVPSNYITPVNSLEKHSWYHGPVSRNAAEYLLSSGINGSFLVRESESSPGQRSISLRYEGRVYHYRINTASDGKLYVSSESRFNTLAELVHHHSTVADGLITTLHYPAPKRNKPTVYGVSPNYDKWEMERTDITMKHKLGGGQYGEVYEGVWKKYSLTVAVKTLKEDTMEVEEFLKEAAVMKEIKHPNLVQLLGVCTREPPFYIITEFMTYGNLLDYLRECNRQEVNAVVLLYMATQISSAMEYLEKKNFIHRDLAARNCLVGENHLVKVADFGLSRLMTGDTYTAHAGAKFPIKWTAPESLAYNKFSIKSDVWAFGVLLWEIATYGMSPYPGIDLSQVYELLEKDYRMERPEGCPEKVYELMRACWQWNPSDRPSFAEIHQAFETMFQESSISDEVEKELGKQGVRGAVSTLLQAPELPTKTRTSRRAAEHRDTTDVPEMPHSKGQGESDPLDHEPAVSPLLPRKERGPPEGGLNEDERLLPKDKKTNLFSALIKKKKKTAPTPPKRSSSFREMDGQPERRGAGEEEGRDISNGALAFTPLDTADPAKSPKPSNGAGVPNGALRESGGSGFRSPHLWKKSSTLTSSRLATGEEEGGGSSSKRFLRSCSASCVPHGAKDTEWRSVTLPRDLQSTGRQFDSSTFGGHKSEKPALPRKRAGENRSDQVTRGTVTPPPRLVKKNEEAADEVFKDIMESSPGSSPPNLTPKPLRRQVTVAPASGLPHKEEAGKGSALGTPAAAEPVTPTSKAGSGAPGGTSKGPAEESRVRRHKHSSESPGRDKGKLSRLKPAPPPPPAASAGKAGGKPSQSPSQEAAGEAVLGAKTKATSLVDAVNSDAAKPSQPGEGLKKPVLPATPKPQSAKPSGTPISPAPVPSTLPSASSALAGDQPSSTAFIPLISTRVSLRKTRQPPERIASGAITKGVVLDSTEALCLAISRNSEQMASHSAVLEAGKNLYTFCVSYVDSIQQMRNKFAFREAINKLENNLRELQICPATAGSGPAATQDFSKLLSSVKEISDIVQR
Sequence (P11274 whole entry, further chain, the tested form may be a part): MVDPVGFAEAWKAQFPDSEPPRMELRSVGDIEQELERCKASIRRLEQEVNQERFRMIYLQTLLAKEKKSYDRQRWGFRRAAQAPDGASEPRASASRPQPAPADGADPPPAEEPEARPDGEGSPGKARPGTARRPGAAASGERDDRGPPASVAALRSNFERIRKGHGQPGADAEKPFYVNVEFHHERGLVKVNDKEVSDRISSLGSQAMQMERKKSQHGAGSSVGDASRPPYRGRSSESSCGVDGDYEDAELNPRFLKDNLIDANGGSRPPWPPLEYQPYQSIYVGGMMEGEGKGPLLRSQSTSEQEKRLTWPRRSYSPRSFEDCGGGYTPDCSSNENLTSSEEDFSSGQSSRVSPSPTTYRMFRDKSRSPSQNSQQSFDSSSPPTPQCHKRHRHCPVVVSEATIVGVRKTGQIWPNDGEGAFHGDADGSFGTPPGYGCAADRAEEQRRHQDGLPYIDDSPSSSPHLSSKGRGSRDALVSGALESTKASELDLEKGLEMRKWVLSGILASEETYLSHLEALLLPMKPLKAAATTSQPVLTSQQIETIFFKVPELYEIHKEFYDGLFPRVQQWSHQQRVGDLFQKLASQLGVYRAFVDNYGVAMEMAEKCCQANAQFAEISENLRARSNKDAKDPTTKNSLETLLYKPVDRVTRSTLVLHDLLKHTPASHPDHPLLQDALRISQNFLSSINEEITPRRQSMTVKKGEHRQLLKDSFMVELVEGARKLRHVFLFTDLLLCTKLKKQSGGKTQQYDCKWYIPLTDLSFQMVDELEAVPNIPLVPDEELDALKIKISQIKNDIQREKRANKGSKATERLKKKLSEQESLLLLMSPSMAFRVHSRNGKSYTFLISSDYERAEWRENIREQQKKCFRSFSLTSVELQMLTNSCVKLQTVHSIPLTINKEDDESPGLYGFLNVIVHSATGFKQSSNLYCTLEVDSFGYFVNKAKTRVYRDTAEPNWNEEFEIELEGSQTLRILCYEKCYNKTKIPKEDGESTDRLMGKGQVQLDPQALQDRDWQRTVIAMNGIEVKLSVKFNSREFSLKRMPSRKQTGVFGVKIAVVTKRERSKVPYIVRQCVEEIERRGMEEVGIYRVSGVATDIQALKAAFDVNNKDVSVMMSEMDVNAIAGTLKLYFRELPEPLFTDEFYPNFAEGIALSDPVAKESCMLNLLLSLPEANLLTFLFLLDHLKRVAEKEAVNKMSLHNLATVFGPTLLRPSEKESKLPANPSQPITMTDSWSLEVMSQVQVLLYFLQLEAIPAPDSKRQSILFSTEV
assay text: Inhibition of BCR-ABL (unknown origin) using peptide GGEAIYAAPFKK as substrate

[
  {
    "structure string": "CN1CCN(c2ccc(Nc3nc(Nc4ccc(F)c(F)c4)c4ncn(CC5CC5)c4n3)cc2F)CC1",
    "IC50, nM": 580
  }
]

====

Test system: Raji
assay text: Antiproliferative activity against human Raji cells assessed as reduction in cell viability incubated for 96 hrs by MTT assay
Type: functional, cell-based

[
  {
    "compound": "C=CC(=O)N1CC2CC(n3nc(-c4ccc(C(=O)Nc5ccccn5)cc4)c4c(N)ncnc43)CC2C1 (stereo unspecified)",
    "measured target": "Raji",
    "units": "µM",
    "IC50": 13.2
  }
]

====

measured target: Tyrosine-protein kinase BTK (Homo sapiens)
assay text: Inhibition of BTK (unknown origin) incubated for 60 mins by ADP-Glo kinase assay
pIC50: −log10 of the molar value.
property name: pIC50

[
  {
    "structure string": "C=CC(=O)Nc1cccc(Nc2nc(Nc3ccc(Cn4cc(C)nc4CC)cc3)ncc2F)c1",
    "data value": 7.37
  },
  {
    "structure string": "C=CC(=O)Nc1cccc(Nc2nc(Nc3ccc(Cn4cc(C)nc4CC)cc3)ncc2Cl)c1",
    "data value": 7.75
  }
]
